ASSAYED SYSTEM: B-cell receptor CD22 (Homo sapiens)
TEST NAME: Binding affinity to biotinylated human CD22-human IgG1 chimeric protein expressed in mouse J558LST6 cells by flow cytometry
READOUT KIND: IC50 (µM)

# get_value(readout='IC50', item= COc1ccc(O[C@@H]2O[C@H](CO[C@]3(C(=O)O)C[C@H](O)[C@@H](NC(=O)CO)[C@H]([C@H](O)[C@H](O)CNC(=O)CCCc4ccc5ccc6cccc7ccc4c5c67)O3)[C@H](O)[C@H](O)[C@H]2O)cc1 )
21.1

Please give the measured IC50 for this molecule: COc1ccc(O[C@@H]2O[C@H](CO[C@]3(C(=O)O)C[C@H](O)[C@@H](NC(=O)CO)[C@H]([C@H](O)[C@H](O)CNCc4ccccc4)O3)[C@H](O)[C@H](O)[C@H]2O)cc1
123

Given the entry COc1ccc(O[C@@H]2O[C@H](CO[C@]3(C(=O)O)C[C@H](O)[C@@H](NC(=O)CO)[C@H]([C@H](O)[C@H](O)CN)O3)[C@H](O)[C@H](O)[C@H]2O)cc1 , report its measured IC50.
85

Look up IC50 for this molecule: COc1ccc(O[C@@H]2O[C@H](CO[C@]3(C(=O)O)C[C@H](O)[C@@H](NC(=O)CO)[C@H]([C@H](O)[C@H](O)CNCc4ccc(-c5ccc(O)cc5)cc4)O3)[C@H](O)[C@H](O)[C@H]2O)cc1
0.24

Query: IC50; subject: COc1ccc(O[C@@H]2O[C@H](CO[C@]3(C(=O)O)C[C@H](O)[C@@H](NC(=O)CO)[C@H]([C@H](O)[C@H](O)CNCC4CCCCC4)O3)[C@H](O)[C@H](O)[C@H]2O)cc1
37.7

Entry under review: COc1ccc(O[C@@H]2O[C@H](CO[C@]3(C(=O)O)C[C@H](O)[C@@H](NC(=O)CO)[C@H]([C@H](O)[C@H](O)CNC(=O)Cc4ccc5ccccc5c4)O3)[C@H](O)[C@H](O)[C@H]2O)cc1 . Reported IC50?
1

What value of measured IC50 is listed for COc1ccc(O[C@@H]2O[C@H](CO[C@]3(C(=O)O)C[C@H](O)[C@@H](NC(=O)CO)[C@H]([C@H](O)[C@H](O)CNC(=O)Cc4ccc(-c5ccc(O)cc5)cc4)O3)[C@H](O)[C@H](O)[C@H]2O)cc1 ?
0.9

Requested field: IC50. Item: COc1ccc(O[C@@H]2O[C@H](CO[C@]3(C(=O)O)C[C@H](O)[C@@H](NC(=O)CO)[C@H]([C@H](O)[C@H](O)CNCCc4ccc(-c5ccccc5)cc4)O3)[C@H](O)[C@H](O)[C@H]2O)cc1
5.48

// IC50 lookup, key: COc1ccc(O[C@@H]2O[C@H](CO[C@]3(C(=O)O)C[C@H](O)[C@@H](NC(=O)CO)[C@H]([C@H](O)[C@H](O)CNC(=O)C(c4ccccc4)c4ccccc4)O3)[C@H](O)[C@H](O)[C@H]2O)cc1
8.85

Look up IC50 for this molecule: COc1ccc(O[C@@H]2O[C@H](CO[C@]3(C(=O)O)C[C@H](O)[C@@H](NC(=O)CO)[C@H]([C@H](O)[C@H](O)CNC(=O)CCc4ccc(O)cc4)O3)[C@H](O)[C@H](O)[C@H]2O)cc1
7.65

1: COc1ccc(O[C@@H]2O[C@H](CO[C@]3(C(=O)O)C[C@H](O)[C@@H](NC(=O)CO)[C@H]([C@H](O)[C@H](O)CNCc4ccc(-c5ccc(OC)cc5)cc4)O3)[C@H](O)[C@H](O)[C@H]2O)cc1
2: COc1ccc(O[C@@H]2O[C@H](CO[C@]3(C(=O)O)C[C@H](O)[C@@H](NC(=O)CO)[C@H]([C@H](O)[C@H](O)CNC(=O)c4ccc(-c5ccccc5)cc4)O3)[C@H](O)[C@H](O)[C@H]2O)cc1
3: COc1ccc(O[C@@H]2O[C@H](CO[C@]3(C(=O)O)C[C@H](O)[C@@H](NC(=O)CO)[C@H]([C@H](O)[C@H](O)CNC(=O)C4CCCCC4)O3)[C@H](O)[C@H](O)[C@H]2O)cc1
Rank the 3 molecules: largest IC50 first, smallest last. Please list each label once, in the requested order.
3, 1, 2

* * *

ASSAYED SYSTEM: B-cell receptor CD22 (Homo sapiens)
Sequence (P20273 whole entry): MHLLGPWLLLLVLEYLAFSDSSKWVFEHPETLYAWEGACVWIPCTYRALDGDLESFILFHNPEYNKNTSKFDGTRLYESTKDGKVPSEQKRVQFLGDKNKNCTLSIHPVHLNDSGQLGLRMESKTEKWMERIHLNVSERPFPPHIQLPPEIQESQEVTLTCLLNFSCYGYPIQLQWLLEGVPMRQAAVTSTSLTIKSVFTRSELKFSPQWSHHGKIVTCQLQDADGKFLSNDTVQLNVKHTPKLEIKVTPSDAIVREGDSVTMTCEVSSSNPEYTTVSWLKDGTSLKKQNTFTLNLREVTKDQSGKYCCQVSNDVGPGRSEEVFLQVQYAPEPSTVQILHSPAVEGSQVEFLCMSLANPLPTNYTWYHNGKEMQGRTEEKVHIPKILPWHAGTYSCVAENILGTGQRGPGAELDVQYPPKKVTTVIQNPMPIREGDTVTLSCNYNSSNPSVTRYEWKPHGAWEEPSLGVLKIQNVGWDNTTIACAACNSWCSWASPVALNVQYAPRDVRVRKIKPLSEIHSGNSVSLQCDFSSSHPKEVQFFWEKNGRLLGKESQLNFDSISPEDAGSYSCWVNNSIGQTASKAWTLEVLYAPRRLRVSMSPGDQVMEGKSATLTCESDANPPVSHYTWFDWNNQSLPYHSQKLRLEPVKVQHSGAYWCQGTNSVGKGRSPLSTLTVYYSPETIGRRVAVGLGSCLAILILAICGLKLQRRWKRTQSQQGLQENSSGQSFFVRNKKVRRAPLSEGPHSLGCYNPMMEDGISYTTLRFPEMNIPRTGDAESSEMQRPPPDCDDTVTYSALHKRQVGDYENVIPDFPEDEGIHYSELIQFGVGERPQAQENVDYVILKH
TEST NAME: Binding affinity to biotinylated human CD22-human IgG1 chimeric protein expressed in mouse J558LST6 cells by flow cytometry
pIC50: −log10 of the molar value.
READOUT KIND: pIC50

Give the reported pIC50 for CCCCCC(=O)NC[C@@H](O)[C@@H](O)[C@@H]1O[C@@](OC[C@H]2O[C@@H](Oc3ccc(OC)cc3)[C@H](O)[C@@H](O)[C@H]2O)(C(=O)O)C[C@H](O)[C@H]1NC(=O)CO (system: B-cell receptor CD22 (Homo sapiens)).
4.39

a: COc1ccc(O[C@@H]2O[C@H](CO[C@]3(C(=O)O)C[C@H](O)[C@@H](NC(=O)CO)[C@H]([C@H](O)[C@H](O)CNC(=O)c4ccccc4)O3)[C@H](O)[C@H](O)[C@H]2O)cc1
b: COc1ccc(O[C@@H]2O[C@H](CO[C@]3(C(=O)O)C[C@H](O)[C@@H](NC(=O)CO)[C@H]([C@H](O)[C@H](O)CNCc4cc(OC)cc(OC)c4)O3)[C@H](O)[C@H](O)[C@H]2O)cc1
Could you point out whether the larger pIC50 belongs to a or to b ? Write down the label attached to your selection.
b
(b: 4.61, a: 3.90)

* * *

ASSAYED SYSTEM: B-cell receptor CD22 (Homo sapiens, UniProt P20273)
TEST NAME: Binding affinity to biotinylated human CD22-human IgG1 chimeric protein expressed in mouse J558LST6 cells by flow cytometry
READOUT KIND: IC50 (µM)

Which value of IC50 has been reported for COc1ccc(O[C@@H]2O[C@H](CO[C@]3(C(=O)O)C[C@H](O)[C@@H](NC(=O)CO)[C@H]([C@H](O)[C@H](O)CNCCCCc4ccc(-c5ccccc5)cc4)O3)[C@H](O)[C@H](O)[C@H]2O)cc1 in the records?
6.22

Looking for the measured IC50 of COc1ccc(O[C@@H]2O[C@H](CO[C@]3(C(=O)O)C[C@H](O)[C@@H](NC(=O)CO)[C@H]([C@H](O)[C@H](O)CNC(=O)c4ccc(-c5ccc(C(=O)O)cc5)cc4)O3)[C@H](O)[C@H](O)[C@H]2O)cc1 , can you help?
73.3

Give its IC50 value. Item: COc1ccc(O[C@@H]2O[C@H](CO[C@]3(C(=O)O)C[C@H](O)[C@@H](NC(=O)CO)[C@H]([C@H](O)[C@H](O)CNC(=O)c4cc(Cl)ccc4O)O3)[C@H](O)[C@H](O)[C@H]2O)cc1
116

P: COc1ccc(O[C@@H]2O[C@H](CO[C@]3(C(=O)O)C[C@H](O)[C@@H](NC(=O)CO)[C@H]([C@H](O)[C@H](O)CNC(=O)Cc4ccc(-c5cccc(O)c5)cc4)O3)[C@H](O)[C@H](O)[C@H]2O)cc1
Q: COc1ccc(O[C@@H]2O[C@H](CO[C@]3(C(=O)O)C[C@H](O)[C@@H](NC(=O)CO)[C@H]([C@H](O)[C@H](O)CNCc4ccc(-c5cccc(O)c5)cc4)O3)[C@H](O)[C@H](O)[C@H]2O)cc1
Between the entries labeled P and Q , whose measured IC50 is lower? Write the label of whichever entry you select.
Q
